proteins and their reported patients with anti-drug antibodies
assay: patients with anti-drug antibodies; higher = more immunogenic
Provide the reading as a plain figure in %.

## Input Query: patients with anti-drug antibodies; subject: unnamed (protein) chain 1: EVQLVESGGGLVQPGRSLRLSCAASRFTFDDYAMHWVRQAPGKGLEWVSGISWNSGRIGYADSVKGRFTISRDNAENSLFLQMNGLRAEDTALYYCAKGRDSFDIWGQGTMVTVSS chain 2: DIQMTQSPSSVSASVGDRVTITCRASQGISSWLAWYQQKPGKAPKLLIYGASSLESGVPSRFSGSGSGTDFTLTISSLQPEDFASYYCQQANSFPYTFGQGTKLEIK
## Output 3.8

Others:
## Input Query: patients with anti-drug antibodies; subject: unnamed (protein) chain 1: QVQLQESGPGLVKPSQTLSLTCSFSGFSLSTSGMGVGWIRQPSGKGLEWLAHIWWDGDESYNPSLKSRLTISKDTSKNQVSLKITSVTAADTAVYFCARNRYDPPWFVDWGQGTLVTVSS chain 2: DIQMTQSTSSLSASVGDRVTITCRASQDISNYLSWYQQKPGKAVKLLIYYTSKLHSGVPSRFSGSGSGTDYTLTISSLQQEDFATYFCLQGKMLPWTFGQGTKLEIK
## Output 37
